Provenance of the data: patent US20080248511A1

# target-or-test-system: firefly luciferase (Photinus pyralis, UniProt P08659)
# Sequence (P08659 whole entry): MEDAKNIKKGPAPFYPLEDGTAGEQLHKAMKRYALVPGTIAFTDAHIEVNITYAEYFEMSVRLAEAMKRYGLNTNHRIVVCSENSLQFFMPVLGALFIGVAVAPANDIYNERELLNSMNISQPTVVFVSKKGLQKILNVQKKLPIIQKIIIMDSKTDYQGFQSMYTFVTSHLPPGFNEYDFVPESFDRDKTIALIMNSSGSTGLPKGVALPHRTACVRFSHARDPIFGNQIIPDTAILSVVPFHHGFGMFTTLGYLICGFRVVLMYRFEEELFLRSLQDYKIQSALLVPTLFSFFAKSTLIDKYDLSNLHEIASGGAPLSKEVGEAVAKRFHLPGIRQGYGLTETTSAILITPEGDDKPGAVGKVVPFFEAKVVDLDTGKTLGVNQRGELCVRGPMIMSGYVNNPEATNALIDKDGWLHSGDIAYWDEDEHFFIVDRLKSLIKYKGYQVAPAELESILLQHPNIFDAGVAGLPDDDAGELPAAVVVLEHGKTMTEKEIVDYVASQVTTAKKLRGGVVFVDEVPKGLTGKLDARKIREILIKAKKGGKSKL
# method-notes: Detergent titration with Tergitol NP-9, digitonin or no lysing agent, firefly luciferase (Example 4)
# Type: biochemical
# experimental-context: 0.0500% detergent; Dig (20 μg/ml digitonin); read-out: Relative Firefly Luc Intensity
measurement-type: remaining activity at 0.05 %

# remaining activity at 0.05 % lookup, item CCCCCCCCCCCC[N+](C)(C)Cc1ccccc1.[Br-] [Benzyldimethyldodecylammonium bromide]
37%

I would be grateful if you could share the reported remaining activity at 0.05 % for CCCCCCCCCCCCCCCC[N+](C)(C)C.[Cl-] [Cetyltrimethylammonium chloride] .
29%

Which remaining activity at 0.05 % is reported for this molecule? CCCCC[N+](CCCCC)(CCCCC)CCCCC.[Br-] [Tetrapentylammonium bromide]
117%

// returns reported remaining activity at 0.05 % for input CCCCCCCCCCCCCC[N+](C)(C)Cc1ccccc1.[Br-] [Benzyldimethyltetradecylammonium bromide]
1.4%

Look at this molecule and give its reported remaining activity at 0.05 %. CCCCCCCCCCCC[N+](C)(C)C.[Br-] [Dodecyltrimethylammonium bromide]
184%

# query: remaining activity at 0.05 % of entry Cc1cc(C)c(C[N+](C)(C)C)cc1C.[Br-]
1%

---

# target-or-test-system: firefly luciferase (Photinus pyralis)
# method-notes: Non-detergent compound screen, firefly luciferase (Example 6)
# Format: biochemical
# experimental-context: inhibitor 153 μM; 0.5% Tergitol NP-9, 0.03% BDDABr; read-out: Retained Firefly Luciferase Value (%)
measurement-type: remaining activity at 153 µM (%)
Just the number please, in %, no unit attached.

So what does the record say about remaining activity at 153 µM for CCCCCCNC(=O)/C=C/c1ccc2[nH]cc(CCN(C)C)c2c1 ?
102

Fill in: remaining activity at 153 µM of C=C(C(=O)NCc1ccc(OC)cc1)c1ccc2[nH]ccc2c1 is ___
102

Quick one: remaining activity at 153 µM of COc1ccc(CNC(=O)/C=C/c2ccc3oc(=O)cc(C)c3c2)cc1 ?
98

What remaining activity at 153 µM value was documented for this molecule, COc1ccc(COC(=O)/C=C/c2ccc3[nH]cc(CCN(C)C)c3c2)cc1 ?
100

Using the record for COc1ccc(CNC(=O)COc2ccc3[nH]cc(CCN(C)C)c3c2)cc1 , report its remaining activity at 153 µM.
89

Which measured remaining activity at 153 µM value corresponds to COc1ccc(CNC(=O)/C(C#N)=C/CCCCCCCBr)cc1 ?
101

If you can, please state the reported remaining activity at 153 µM value of C=C(C(=O)NCc1ccc(OC)cc1)c1ccc2oc(=O)cc(C)c2c1 .
102

I am curious: what remaining activity at 153 µM value has been reported for C=C(C(=O)NCc1ccc(OC)cc1)c1ccc2ncccc2c1 ?
97

---

# target-or-test-system: firefly luciferase (Photinus pyralis)
# method-notes: Quaternary ammonium/phosphonium detergent screen, firefly luciferase (Example 5)
# Assay type: biochemical
# experimental-context: final conc. 0.10% detergent; Tergitol NP-9 present; read-out: Retained Firefly Luciferase Luminescence (%)
measurement-type: remaining activity at 0.1 % (%)
Please give a number only; it is taken to be in %.

I am curious: what remaining activity at 0.1 % value has been reported for CC=CC[P+](Cc1ccccc1)(c1ccccc1)c1ccccc1.[Br-] ?
109

Data request, read-out remaining activity at 0.1 %, for CCCCCCCCCCCC[N+](C)(C)Cc1ccccc1.[Br-] [Benzyldimethyldodecylammonium bromide]
97

Given CCCCCCCCCCCCCCCC[N+](C)(C)Cc1ccccc1.[Cl-] [Benzyldimethylhexadecylammonium chloride] , state its recorded remaining activity at 0.1 %.
97

If you can, please state the reported remaining activity at 0.1 % value of C[P+](C)(Cc1ccc([N+](=O)[O-])cc1)c1ccccc1.[Br-] .
106

What value of remaining activity at 0.1 % has been recorded for this entry: C=CCCC[P+](c1ccccc1)(c1ccccc1)c1ccccc1.[Br-]
102

Please look up its remaining activity at 0.1 %: CCCCCCCCCC[N+](C)(C)Cc1ccccc1.[Cl-] [Benzyldimethyldecylammonium chloride]
112

Query (compound): CC[P+](CC)(CC)Cc1ccccc1.[Br-] [Benzyltriethylphosphonium bromide] ; field requested: remaining activity at 0.1 %
102

remaining activity at 0.1 % for CCCC[P+](CCCC)(CCCC)Cc1ccc(C)cc1.[Cl-] ?
106

Returns the measured remaining activity at 0.1 % for the input compound. Input: CCCCCCCCCCC(C(=O)c1ccc(OC)cc1)[N+](C)(C)C.[Br-] (centres unmarked)
104

For the compound CC[N+](C)(C)c1cccc(O)c1 [Edrophonium chloride] , what remaining activity at 0.1 % is on record?
102

Which value of remaining activity at 0.1 % has been reported for C=C(C)[P+](C)(c1ccccc1)c1ccccc1.[I-] in the records?
109
